Known clearance of a selection of compounds
test: Clearance in mouse at 2.5 mg/kg, iv; type: ADME, organism-based; design: dose 2.5 mg/kg, route intravenous; details: in vivo
Measured parameter: clearance (mL/min/kg)

smiles_notation=CCCS(=O)(=O)Nc1cccc(Nc2ccc3ncn(C)c(=O)c3c2)c1C#N quantity_unit=mL/min/kg result_number=1.6
smiles_notation=CCCS(=O)(=O)Nc1ccc(F)c(Nc2ccc3ncn(C)c(=O)c3c2)c1Cl quantity_unit=mL/min/kg result_number=4.7

###

molecular target: Serine/threonine-protein kinase B-raf (Homo sapiens, UniProt P15056, V600E); assay: Inhibition of full-length B-Raf V600E mutant (unknown origin)
Sequence (P15056 2-766 V600E limits assumed): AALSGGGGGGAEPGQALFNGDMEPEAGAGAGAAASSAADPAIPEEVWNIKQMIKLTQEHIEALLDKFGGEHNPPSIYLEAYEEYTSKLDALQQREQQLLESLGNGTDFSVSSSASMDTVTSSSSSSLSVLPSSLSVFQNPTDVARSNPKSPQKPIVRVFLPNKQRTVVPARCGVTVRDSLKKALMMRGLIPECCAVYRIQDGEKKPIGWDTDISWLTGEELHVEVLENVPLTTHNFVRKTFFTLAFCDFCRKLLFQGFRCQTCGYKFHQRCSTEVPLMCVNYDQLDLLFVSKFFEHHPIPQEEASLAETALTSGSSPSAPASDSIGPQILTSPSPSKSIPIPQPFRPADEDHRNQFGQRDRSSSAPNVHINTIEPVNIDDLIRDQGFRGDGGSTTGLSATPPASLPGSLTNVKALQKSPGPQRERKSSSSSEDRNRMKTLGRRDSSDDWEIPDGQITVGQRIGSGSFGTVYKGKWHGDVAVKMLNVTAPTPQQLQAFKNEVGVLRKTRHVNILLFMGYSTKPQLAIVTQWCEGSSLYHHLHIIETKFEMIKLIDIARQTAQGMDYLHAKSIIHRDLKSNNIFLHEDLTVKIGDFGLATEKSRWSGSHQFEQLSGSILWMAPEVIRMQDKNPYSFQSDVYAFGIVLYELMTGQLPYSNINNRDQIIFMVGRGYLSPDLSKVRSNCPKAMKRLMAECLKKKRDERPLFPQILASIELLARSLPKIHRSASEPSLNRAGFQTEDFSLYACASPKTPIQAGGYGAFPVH
pIC50: −log10 of the molar value.
Measured parameter: pIC50

smiles_notation=CCCS(=O)(=O)Nc1ccc(F)c(Nc2ccc3ncn(C)c(=O)c3c2)c1F measured_parameter=pIC50 result_number=7.72
smiles_notation=CCCS(=O)(=O)Nc1ccc(F)c(Nc2ccc3ncncc3c2)c1F measured_parameter=pIC50 result_number=7.48
smiles_notation=CCCS(=O)(=O)Nc1ccc(F)c(Nc2ccc3ncn(Cc4ccccc4)c(=O)c3c2)c1Cl measured_parameter=pIC50 result_number=7.77
smiles_notation=CCCS(=O)(=O)Nc1ccc(F)c(Nc2ccc3nccnc3c2)c1Cl measured_parameter=pIC50 result_number=7.60
smiles_notation=CCCS(=O)(=O)Nc1ccc(F)c(Nc2ccc3ncnc(N(C)C)c3c2)c1Cl measured_parameter=pIC50 result_number=7.00
smiles_notation=CCCS(=O)(=O)Nc1ccc(F)c(N(CC)c2ccc3ncn(C)c(=O)c3c2)c1Cl measured_parameter=pIC50 result_number=7.52
smiles_notation=CCCS(=O)(=O)Nc1ccc(F)c(Nc2ccc3ncn(C)c(=O)c3c2)c1Cl measured_parameter=pIC50 result_number=8.70
smiles_notation=CCCS(=O)(=O)Nc1ccc(C)c(Nc2ccc3ncn(C)c(=O)c3c2)c1 measured_parameter=pIC50 result_number=6.07
smiles_notation=CCCS(=O)(=O)Nc1ccc(F)c(Oc2ccc3ncn(C)c(=O)c3c2)c1C#N measured_parameter=pIC50 result_number=9.70
smiles_notation=CCCS(=O)(=O)Nc1ccc(F)c(Nc2ccc3ncncc3c2)c1Cl measured_parameter=pIC50 result_number=8.40
smiles_notation=CCCS(=O)(=O)Nc1ccc(F)c(N(CC)c2ccc3ncn(C)c(=O)c3c2)c1F measured_parameter=pIC50 result_number=7.59
smiles_notation=CCCS(=O)(=O)Nc1ccc(Cl)c(Oc2ccc3ncn(C)c(=O)c3c2)c1C#N measured_parameter=pIC50 result_number=9.70
smiles_notation=CCCS(=O)(=O)Nc1ccc(F)c(Nc2ccc3ncnc(OC)c3c2)c1Cl measured_parameter=pIC50 result_number=7.80
smiles_notation=CCCS(=O)(=O)Nc1ccc(F)c(N(C)c2ccc3ncn(C)c(=O)c3c2)c1Cl measured_parameter=pIC50 result_number=8.10
smiles_notation=CCCS(=O)(=O)Nc1ccc(Cl)c(Nc2ccc3ncn(C)c(=O)c3c2)c1F measured_parameter=pIC50 result_number=7.92
smiles_notation=CCCS(=O)(=O)Nc1ccc(F)c(Nc2ccc3ncccc3c2)c1F measured_parameter=pIC50 result_number=6.50
smiles_notation=CCCS(=O)(=O)Nc1ccc(F)c(Nc2ccc3ncn(-c4cnn(C)c4)c(=O)c3c2)c1Cl measured_parameter=pIC50 result_number=8.70
smiles_notation=CCCS(=O)(=O)Nc1cccc(Oc2ccc3ncn(C)c(=O)c3c2)c1C#N measured_parameter=pIC50 result_number=9.52
smiles_notation=CCCS(=O)(=O)Nc1ccc(F)c(Nc2ccc3ncnc(NC)c3c2)c1Cl measured_parameter=pIC50 result_number=7.96
smiles_notation=CCCS(=O)(=O)Nc1ccc(F)c(N(C)c2ccc3ncn(C)c(=O)c3c2)c1F measured_parameter=pIC50 result_number=7.96
smiles_notation=CCCS(=O)(=O)Nc1ccc(Cl)c(Nc2ccc3ncn(C)c(=O)c3c2)c1C#N measured_parameter=pIC50 result_number=9.70
smiles_notation=CCCS(=O)(=O)Nc1cccc(Nc2ccc3ncn(C)c(=O)c3c2)c1C#N measured_parameter=pIC50 result_number=9.52
smiles_notation=CCCS(=O)(=O)Nc1ccc(Cl)c(N(C)c2ccc3ncn(C)c(=O)c3c2)c1F measured_parameter=pIC50 result_number=8.52
